From: the supplement of paper PMC11246515

# ASSAY_NOTES: total protein half-life in vivo (active degradation + dilution); higher = more stable protein
# CONDITION_DETAILS: E. coli NCM3722 delta-clpP delta-lon delta-hslV; growth: N-lim chemostat; doubling time 6 h
READOUT_KIND: total protein half-life in vivo (h)
Response body: numeric value in h, unit text excluded.

Q) Identify total protein half-life in vivo associated with the sequence `MLLATALLIVGLLLVVYSADRLVFAASILCRTFGIPPLIIGMTVVSIGTSLPEVIVSLAASLHEQRDLAVGTALGSNIINILLILGLAALVRPFTVHSDVLRRELPLMLLVSVVAGSVLYDGQLSRSDGIFLLFLAVLWLLFIVKLARQAERQGTDSLTREQLAELPRDGGLPVAFLWLGIALIIMPVATRMVVDNATVLANYFAISELTMGLTAIAIGTSLPELATAIAGVRKGENDIAVGNIIGANIFNIVIVLGLPALITPGEIDPLAYSRDYSVMLLVSIIFALLCWRRSPQPGRGVGVLLTGGFIVWLAMLYWLSPILVE`
A) 4.93

====

# ASSAY_NOTES: total protein half-life in vivo (active degradation + dilution); higher = more stable protein
# CONDITION_DETAILS: wild type E. coli NCM3722; growth: P-lim chemostat; doubling time 12 h
READOUT_KIND: total protein half-life in vivo (h)
Response body: numeric value in h, unit text excluded.

SEQUENCE_DATA	total protein half-life in vivo, h
MTLKELLVGFGTQVRSIWMIGLHAFAKRETRMYPEEPVYLPPRYRGRIVLTRDPDGEERCVACNLCAVACPVGCISLQKAETKDGRWYPEFFRINFSRCIFCGLCEEACPTTAIQLTPDFEMGEYKRQDLVYEKEDLLISGPGKYPEYNFYRMAGMAIDGKDKGEAENEAKPIDVKSLLP [P0AFD6]	13.6

Okay, next one:
Q) Identify total protein half-life in vivo associated with the sequence `MSAGRLNKKSLGIVMLLSVGLLLAGCSGSKSSDTGTYSGSVYTVKRGDTLYRISRTTGTSVKELARLNGISPPYTIEVGQKLKLGGAKSSSITRKSTAKSTTKTASVTPSSAVPKSSWPPVGQRCWLWPTTGKVIMPYSTADGGNKGIDISAPRGTPIYAAGAGKVVYVGNQLRGYGNLIMIKHSEDYITAYAHNDTMLVNNGQSVKAGQKIATMGSTDAASVRLHFQIRYRATAIDPLRYLPPQGSKPKC`
A) 13.3

====

# ASSAY_NOTES: total protein half-life in vivo (active degradation + dilution); higher = more stable protein
# CONDITION_DETAILS: wild type E. coli NCM3722; growth: C-lim chemostat; doubling time 6 h
Please assign a class to every record based on measured total protein half-life in vivo, with ranges lower = under 5 h, middle = from 5 h up to 6 h, upper = 6 h and over

Study these solved cases before continuing.
SEQUENCE_DATA	GROUP_LABEL
MADITLISGSTLGGAEYVAEHLAEKLEEAGFTTETLHGPLLEDLPASGIWLVISSTHGAGDIPDNLSPFYEALQEQKPDLSAVRFGAIGIGSREYDTFCGAIDKLEAELKNSGAKQTGETLKINILDHDIPEDPAEEWLGSWVNLLK	lower
MLAFIRFLFAGLLLVISHAFAATVQDEHGTFTLEKTPQRIVVLELSFADALAAVDVIPIGIADDNDAKRILPEVRAHLKPWQSVGTRAQPSLEAIAALKPDLIIADSSRHAGVYIALQQIAPVLLLKSRNETYAENLQSAAIIGEMVGKKREMQARLEQHKERMAQWASQLPKGTRVAFGTSREQQFNLHTQETWTGSVLASLGLNVPAAMAGASMPSIGLEQLLAVNPAWLLVAHYREESIVKRWQQDPLWQMLTAAQKQQVASVDSNTWARMRGIFAAERIAADTVKIFHHQPLTVVK	middle
MIQPISGPPPGQPPGQGDNLPSGTGNQPLSSQQRTSLESLMTKVTSLTQQQRAELWAGIRHDIGLSGDSPLLSRHFPAAEHNLAQRLLAAQKSHSARQLLAQLGEYLRLGNNRQAVTDYIRHNFGQTPLNQLSPEQLKTILTLLQEGKMVIPQPQQREATDRPLLPAEHNALKQLVTKLAAATGEPSKQIWQSMLELSGVKDGELIPAKLFNHLVTWLQARQTLSQQNTPTLESLQMTLKQPLDASELAALSAYIQQKYGLSAQSSLSSAQAEDILNQLYQRRVKGIDPRVMQPLLNPFPPMMDTLQNMATRPALWILLVAIILMLVWLVR	lower
MKRKTLPLLALVATTLFLIACDDRSDDLKAISKFKDLTPPRFSDVVSHQDDVSEEWSQVDYLSGPTLQVLRTRQSPDGCEDGSYYYLVDMQEKTVQPLMNALCIADNIKLEYQEVTDPYTKEKYFEYAHDGKLMGQLLIPSNPDNQE	lower
MIRFEHVSKAYLGGRQALQGVTFHMQPGEMAFLTGHSGAGKSTLLKLICGIERPSAGKIWFSGHDITRLKNREVPFLRRQIGMIFQDHHLLMDRTVYDNVAIPLIIAGASGDDIRRRVSAALDKVGLLDKAKNFPIQLSGGEQQRVGIARAVVNKPAVLLADEPTGNLDDALSEGILRLFEEFNRVGVTVLMATHDINLISRRSYRMLTLSDGHLHGGVGHE [P0A9R7]	middle

Q) Which category fits this record: `MIVAFCLYKYFPFGGLQRDFMRIASTVAARGHHVRVYTQSWEGDCPKAFELIQVPVKSHTNHGRNAEYYAWVQNHLKEHPADRVVGFNKMPGLDVYFAADVCYAEKVAQEKGFLYRLTSRYRHYAAFERATFEQGKSTKLMMLTDKQIADFQKHYQTEPERFQILPPGIYPDRKYSEQIPNSREIYRQKNGIKEQQNLLLQVGSDFGRKGVDRSIEALASLPESLRHNTLLFVVGQDKPRKFEALAEKLGVRSNVHFFSGRNDVSELMAAADLLLHPAYQEAAGIVLLEAITAGLPVLTTAVCGYAHYIADANCGTVIAEPFSQEQLNEVLRKALTQSPLRMAWAENARHYADTQDLYSLPEKAADIITGGLDG`
A) upper

Q) Which category fits this record: `MQCALYDAGRCRSCQWIMQPIPEQLSAKTADLKNLLADFPVEEWCAPVSGPEQGFRNKAKMVVSGSVEKPLLGMLHRDGTPEDLCDCPLYPASFAPVFAALKPFIARAGLTPYNVARKRGELKYILLTESQSDGGMMLRFVLRSDTKLAQLRKALPWLHEQLPQLKVITVNIQPVHMAIMEGETEIYLTEQQALAERFNDVPLWIRPQSFFQTNPAVASQLYATARDWVRQLPVKHMWDLFCGVGGFGLHCATPDMQLTGIEIASEAIACAKQSAAELGLTRLQFQALDSTQFATAQGDVPELVLVNPPRRGIGKPLCDYLSTMAPRFIIYSSCNAQTMAKDIRELPGFRIERVQLFDMFPHTAHYEVLTLLVKQ`
A) middle

Q) Which category fits this record: `MRQTKTGILLANLGTPDAPTPEAVKRYLKQFLSDRRVVDTSRLLWWPLLRGVILPLRSPRVAKLYASVWMEGGSPLMVYSRQQQQALAQRLPEMPVALGMSYGSPSLESAVDELLAEHVDHIVVLPLYPQFSCSTVGAVWDELARILARKRSIPGISFIRDYADNHDYINALANSVRASFAKHGEPDLLLLSYHGIPQRYADEGDDYPQRCRTTTRELASALGMAPEKVMMTFQSRFGREPWLMPYTDETLKMLGEKGVGHIQVMCPGFAADCLETLEEIAEQNREVFLGAGGKKYEYIPALNATPEHIEMMANLVAAYR`
A) upper

Q) Which category fits this record: `MVKVYAPASSANMSVGFDVLGAAVTPVDGALLGDVVTVEAAETFSLNNLGRFADKLPSEPRENIVYQCWERFCQELGKQIPVAMTLEKNMPIGSGLGSSACSVVAALMAMNEHCGKPLNDTRLLALMGELEGRISGSIHYDNVAPCFLGGMQLMIEENDIISQQVPGFDEWLWVLAYPGIKVSTAEARAILPAQYRRQDCIAHGRHLAGFIHACYSRQPELAAKLMKDVIAEPYRERLLPGFRQARQAVAEIGAVASGISGSGPTLFALCDKPETAQRVADWLGKNYLQNQEGFVHICRLDTAGARVLEN`
A) middle

====

# ASSAY_NOTES: total protein half-life in vivo (active degradation + dilution); higher = more stable protein
# CONDITION_DETAILS: E. coli NCM3722 delta-hslV; growth: N-lim chemostat; doubling time 6 h
# key: entry, value: total protein half-life in vivo

Example entries and their recorded answers appear below.
SEQUENCE_DATA	total protein half-life in vivo
MSKLDLNALNELPKVDRILALAETNAELEKLDAEGRVAWALDNLPGEYVLSSSFGIQAAVSLHLVNQIRPDIPVILTDTGYLFPETYRFIDELTDKLKLNLKVYRATESAAWQEARYGKLWEQGVEGIEKYNDINKVEPMNRALKELNAQTWFAGLRREQSGSRANLPVLAIQRGVFKVLPIIDWDNRTIYQYLQKHGLKYHPLWDEGYLSVGDTHTTRKWEPGMAEEETRFFGLKRECGLHEG	1.29 h
MTIKNKMLLGALLLVTSAAWAAPATAGSTNTSGISKYELSSFIADFKHFKPGDTVPEMYRTDEYNIKQWQLRNLPAPDAGTHWTYMGGAYVLISDTDGKIIKAYDGEIFYHR	6.26 h

Q) Identify total protein half-life in vivo associated with the sequence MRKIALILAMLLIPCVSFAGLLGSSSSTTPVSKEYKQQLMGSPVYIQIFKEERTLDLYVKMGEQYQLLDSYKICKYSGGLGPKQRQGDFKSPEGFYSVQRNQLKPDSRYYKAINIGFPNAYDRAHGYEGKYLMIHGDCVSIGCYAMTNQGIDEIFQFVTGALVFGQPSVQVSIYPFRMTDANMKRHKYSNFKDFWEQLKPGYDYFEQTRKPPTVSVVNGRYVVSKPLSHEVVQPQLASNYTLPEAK [P0AA99]
A) 0.844 h

Q) Identify total protein half-life in vivo associated with the sequence `MSLSRTQIVNWLTRCGDIFSTESEYLTGLDREIGDADHGLNMNRGFSKVVEKLPAIADKDIGFILKNTGMTLLSSVGGASGPLFGTFFIRAAQATQARQSLTLEELYQMFRDGADGVISRGKAEPGDKTMCDVWVPVVESLRQSSEQNLSVPVALEAASSIAESAAQSTITMQARKGRASYLGERSIGHQDPGATSVMFMMQMLALAAKE`
A) 4.36 h

Q) Identify total protein half-life in vivo associated with the sequence `MSTTWFVGADWLAEHIDDPEIQIIDARMASPGQEDRNVAQEYLNGHIPGAVFFDIEALSDHTSPLPHMLPRPETFAVAMRELGVNQDKHLIVYDEGNLFSAPRAWWMLRTFGVEKVSILGGGLAGWQRDDLLLEEGAVELPEGEFNAAFNPEAVVKVTDVLLASHENTAQIIDARPAARFNAEVDEPRPGLRRGHIPGALNVPWTELVREGELKTTDELDAIFFGRGVSYDKPIIVSCGSGVTAAVVLLALATLDVPNVKLYDGAWSEWGARADLPVEPVK`
A) 4.63 h

Q) Identify total protein half-life in vivo associated with the sequence `MDLQHWQAQFENWLKNHHQHQDAAHDVCHFRRVWATAQKLAADDDVDMLVILTACYFHDIVSLAKNHPQRQRSSILAAEETRRLLREEFEQFPAEKIEAVCHAIAAHSFSAQIAPLTTEAKIVQDADRLEALGAIGLARVFAVSGALGVALFDGEDPFAQHRPLDDKRYALDHFQTKLLKLPQTMQTARGKQLAQHNAHFLVEFMAKLSAELAGENEGVDHKVIDAFSSAG`
A) 2.72 h

Q) Identify total protein half-life in vivo associated with the sequence MSTIEERVKKIIGEQLGVKQEEVTNNASFVEDLGADSLDTVELVMALEEEFDTEIPDEEAEKITTVQAAIDYINGHQA [P0A6A8]
A) 5.79 h

Q) Identify total protein half-life in vivo associated with the sequence `MFSALRHRTAALALGVCFILPVHASSPKPGDFANTQARHIATFFPGRMTGTPAEMLSADYIRQQFQQMGYRSDIRTFNSRYIYTARDNRKSWHNVTGSTVIAAHEGKAPQQIIIMAHLDTYAPLSDADADANLGGLTLQGMDDNAAGLGVMLELAERLKNTPTEYGIRFVATSGEEEGKLGAENLLKRMSDTEKKNTLLVINLDNLIVGDKLYFNSGVKTPEAVRKLTRDRALAIARSHGIAATTNPGLNKNYPKGTGCCNDAEIFDKAGIAVLSVEATNWNLGNKDGYQQRAKTPAFPAGNSWHDVRLDNHQHIDKALPGRIERRCRDVMRIMLPLVKELAKAS`
A) 5.24 h
